These data points were gathered from patent US7074789B2.

Reported pIC50 values for a set of molecules
# STUDY TARGET: ErbB2 (Homo sapiens)
# Sequence (P04626 23-1255, species assumed): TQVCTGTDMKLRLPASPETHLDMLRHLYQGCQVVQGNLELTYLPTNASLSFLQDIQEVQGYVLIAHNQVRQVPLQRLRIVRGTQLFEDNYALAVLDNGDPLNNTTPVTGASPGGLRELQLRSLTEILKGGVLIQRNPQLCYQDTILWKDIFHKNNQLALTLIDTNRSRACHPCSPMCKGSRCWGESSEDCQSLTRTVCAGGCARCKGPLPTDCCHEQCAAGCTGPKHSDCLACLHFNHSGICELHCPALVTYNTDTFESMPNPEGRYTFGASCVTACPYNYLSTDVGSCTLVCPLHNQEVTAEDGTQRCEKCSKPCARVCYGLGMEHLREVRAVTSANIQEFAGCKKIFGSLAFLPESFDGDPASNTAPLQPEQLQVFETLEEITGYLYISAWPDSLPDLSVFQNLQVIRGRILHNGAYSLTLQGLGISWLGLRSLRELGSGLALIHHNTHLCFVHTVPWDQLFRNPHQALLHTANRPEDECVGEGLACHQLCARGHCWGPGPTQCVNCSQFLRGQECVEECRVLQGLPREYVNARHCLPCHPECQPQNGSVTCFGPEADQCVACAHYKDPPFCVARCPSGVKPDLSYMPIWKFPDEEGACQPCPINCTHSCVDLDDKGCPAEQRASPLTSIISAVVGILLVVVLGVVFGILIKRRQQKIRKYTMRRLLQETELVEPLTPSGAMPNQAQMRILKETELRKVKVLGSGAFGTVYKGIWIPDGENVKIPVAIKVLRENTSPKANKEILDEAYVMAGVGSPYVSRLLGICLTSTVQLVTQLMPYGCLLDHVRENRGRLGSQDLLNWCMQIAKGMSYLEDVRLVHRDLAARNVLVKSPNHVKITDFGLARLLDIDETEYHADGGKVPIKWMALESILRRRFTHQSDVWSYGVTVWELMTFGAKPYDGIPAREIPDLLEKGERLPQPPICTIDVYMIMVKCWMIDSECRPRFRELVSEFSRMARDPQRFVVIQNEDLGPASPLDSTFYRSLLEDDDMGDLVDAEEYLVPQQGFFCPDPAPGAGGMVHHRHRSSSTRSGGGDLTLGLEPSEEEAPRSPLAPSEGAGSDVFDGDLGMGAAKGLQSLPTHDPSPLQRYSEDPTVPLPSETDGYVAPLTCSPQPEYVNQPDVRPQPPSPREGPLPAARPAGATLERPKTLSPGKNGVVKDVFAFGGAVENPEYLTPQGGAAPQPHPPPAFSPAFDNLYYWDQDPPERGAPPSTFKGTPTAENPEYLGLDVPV
pIC50: −log10 of the molar value.

Look over these answered cases.
* FC(F)(F)Sc1cccc(Nc2ncnc(Nc3cc(-c4ccco4)[nH]n3)n2)c1 [Compound 827] | > 6.02
* COc1cc(Nc2ncnc(-n3c(C)nc4ccccc43)n2)cc(OC)c1OC [Compound 691] | < 4.94
* CN(c1ccccc1)c1ncnc(-n2c(N)nc3ccccc32)n1 [Compound 662] | 4.96 to 5.12

Enquiry: Item CN(c1cccc(Cl)c1)c1ncnc(Nc2ccc(F)c(Cl)c2)n1 [Compound 703] with ErbB2 (Homo sapiens) - pIC50?
Return: 4.91 to 5.02

Enquiry: Item COc1cc(Nc2ncnc(-c3cccnc3N)n2)cc(OC)c1OC [Compound 1091] with ErbB2 (Homo sapiens) - pIC50?
Return: 5.17 to 5.95

Enquiry: Item CN(c1cccc(Br)c1)c1ncnc(Nc2cccc(Cc3nnn[nH]3)c2)n1 [Compound 670] with ErbB2 (Homo sapiens) - pIC50?
Return: > 6.04

Enquiry: Item NC(=O)c1ccc(Nc2ncnc(-c3cccnc3NCc3cccs3)n2)cc1 [Compound 1083] with ErbB2 (Homo sapiens) - pIC50?
Return: < 4.95

Enquiry: Item COc1cc(Nc2ncnc(Nc3cc(-c4ccc(Cl)c(Cl)c4)n[nH]3)n2)cc(OC)c1OC [Compound 589] with ErbB2 (Homo sapiens) - pIC50?
Return: 5.14 to 5.31

Enquiry: Item COc1cc(Nc2ncnc(-n3nc(-c4ccccc4)cc3N)n2)cc(OC)c1OC [Compound 520] with ErbB2 (Homo sapiens) - pIC50?
Return: < 4.97
